Molecular target: Yer064c (UniProt P40041)
Sequence: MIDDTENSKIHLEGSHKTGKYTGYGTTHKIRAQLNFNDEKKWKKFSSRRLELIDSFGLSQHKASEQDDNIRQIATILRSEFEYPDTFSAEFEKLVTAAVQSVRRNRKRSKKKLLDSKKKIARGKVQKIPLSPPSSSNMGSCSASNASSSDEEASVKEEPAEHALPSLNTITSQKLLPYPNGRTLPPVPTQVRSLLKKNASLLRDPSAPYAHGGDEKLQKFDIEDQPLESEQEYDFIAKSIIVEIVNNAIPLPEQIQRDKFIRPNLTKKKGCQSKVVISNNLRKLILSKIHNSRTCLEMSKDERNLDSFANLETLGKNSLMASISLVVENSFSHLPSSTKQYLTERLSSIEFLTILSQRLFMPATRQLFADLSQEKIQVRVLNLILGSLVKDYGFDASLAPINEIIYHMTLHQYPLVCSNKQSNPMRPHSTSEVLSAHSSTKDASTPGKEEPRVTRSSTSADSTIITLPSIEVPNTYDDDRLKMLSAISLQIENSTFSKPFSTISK
Experiment: PBM E-score (8-mer binding enrichment) (E-score (-0.5 to 0.5)); higher = stronger / more preferred TF binding
Conditions: protein concentration: 200 nM; construct: GST-full length
Whole data set: some 33,000 sequences, median “E-score (-0.5 to 0.5)” near -0.036, cut for the highest 2% near 0.37. Many of the other results were omitted from the sample, so the highest values are more common in it than they were.
Decision: PBM E-score >= 0.08 yields criterion met, all other cases yield criterion not met.

// below: answered sequences
>  <entry_sequence>
ATGAGTGC

>  <class_assignment>
criterion met

$$$$
>  <entry_sequence>
ATAGAGAC

>  <class_assignment>
criterion met

$$$$
>  <entry_sequence>
GGCGGCCC

>  <class_assignment>
criterion not met

$$$$
>  <entry_sequence>
AGGCACAT

>  <class_assignment>
criterion not met

$$$$
>  <entry_sequence>
ATGAGTCG

>  <class_assignment>
criterion met

$$$$

**Query** Test whether the sequence AGCGGATG records PBM E-score of 0.08 or higher.
**Result** criterion not met

**Query** Test whether the sequence AATAGAAA records PBM E-score of 0.08 or higher.
**Result** criterion not met
